Molecular target: Serine/threonine-protein kinase mTOR (Homo sapiens)
Assay: Inhibition of mTORC1 expressed in HEK293 cells assessed as PRAS40 Ser183 phosphorylation level by LanthaScreen cellular assay
Type: cell-based
Catalogue of IC50 readings, one per entry.
result_type: IC50

                             molecule_smiles  result_value
 0                C(#CC1CC1)c1n[nH]c2ccccc12       > 50 µM
 1                 CN(C)CC#Cc1n[nH]c2ccccc12       > 50 µM
 2         Fc1cc(F)cc(C#Cc2n[nH]c3ccccc23)c1      > 200 µM
 3             C(#Cc1n[nH]c2ccccc12)c1cccnc1       > 50 µM
 4  FC(F)(F)c1cc(C#Cc2n[nH]c3ccccc23)cc(C(F)(F)F)c1      > 100 µM
 5             C(#Cc1n[nH]c2ccccc12)c1ccccc1       > 50 µM
 6              Nc1ccccc1C#Cc1n[nH]c2ccccc12       > 50 µM
 7             C(#Cc1n[nH]c2ncccc12)c1cccnc1       > 10 µM
 8              C(#Cc1n[nH]c2ccccc12)c1ccsc1      > 100 µM
 9             C(#Cc1n[nH]c2ccccc12)c1ccccn1       > 50 µM
10          N#Cc1ccc(C#Cc2n[nH]c3ccccc23)cc1       > 50 µM
11              C(#CC1CCCC1)c1n[nH]c2ccccc12       > 50 µM
12            Nc1ccc(C#Cc2n[nH]c3ccccc23)cc1       10.8 µM
